Some compounds, each annotated with its measured % Activity.
Target: androgen receptor (adenovirus AdEasy+rAR in L929 cells) (Rattus norvegicus, UniProt P15207)
Construct: expressed in transfected cells
Sequence (P15207 whole entry S389L): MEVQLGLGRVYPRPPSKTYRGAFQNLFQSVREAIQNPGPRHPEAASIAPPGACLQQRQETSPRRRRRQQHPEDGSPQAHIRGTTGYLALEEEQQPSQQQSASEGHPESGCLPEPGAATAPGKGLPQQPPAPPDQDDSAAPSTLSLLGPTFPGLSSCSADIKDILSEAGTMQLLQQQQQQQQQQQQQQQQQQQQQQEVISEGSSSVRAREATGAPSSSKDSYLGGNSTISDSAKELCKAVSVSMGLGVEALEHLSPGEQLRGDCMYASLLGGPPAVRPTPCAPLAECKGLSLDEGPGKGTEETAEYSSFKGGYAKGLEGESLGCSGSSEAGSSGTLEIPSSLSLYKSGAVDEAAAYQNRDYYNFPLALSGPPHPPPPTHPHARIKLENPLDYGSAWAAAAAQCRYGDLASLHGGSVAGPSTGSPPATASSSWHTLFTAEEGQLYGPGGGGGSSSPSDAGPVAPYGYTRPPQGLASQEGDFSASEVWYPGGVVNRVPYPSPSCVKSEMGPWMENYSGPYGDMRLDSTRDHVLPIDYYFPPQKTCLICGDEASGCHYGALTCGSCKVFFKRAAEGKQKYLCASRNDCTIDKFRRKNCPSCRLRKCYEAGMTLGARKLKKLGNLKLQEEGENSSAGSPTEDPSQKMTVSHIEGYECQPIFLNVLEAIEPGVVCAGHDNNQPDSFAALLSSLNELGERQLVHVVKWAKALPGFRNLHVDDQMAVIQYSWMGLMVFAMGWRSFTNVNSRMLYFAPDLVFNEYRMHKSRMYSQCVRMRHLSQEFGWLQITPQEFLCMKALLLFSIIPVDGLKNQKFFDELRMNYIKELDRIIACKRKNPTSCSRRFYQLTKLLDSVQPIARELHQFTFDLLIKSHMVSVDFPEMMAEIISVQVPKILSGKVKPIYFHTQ
Experiment: L929 Androgen Receptor Functional Assay, Adenovirus Transduction
Assay type: cell-based
Conditions: L929 agonist testing; 3000 nM
All answers are understood in %, so give the number only.

These solved cases illustrate the format of a correct answer.
- compound: "CCC(O)(CS(=O)(=O)CC(F)(F)F)c1cc2cc([N+](=O)[O-])c(C(F)(F)F)cc2[nH]1 (stereo not shown)"
  valueKind: "% Activity"
  endpointResult: 2
- compound: "CCSCC(C)(O)c1cc2cc(Cl)ccc2n1S(C)(=O)=O (racemic)"
  valueKind: "% Activity"
  endpointResult: 2
- compound: "CCC(O)(CSCC(F)(F)F)c1cc2cc([N+](=O)[O-])c(C(F)(F)F)cc2[nH]1 (stereo not shown)"
  valueKind: "% Activity"
  endpointResult: 2

Consider the additional compound presented here.
Task: Quick one: % Activity of CC(O)(CS(C)(=O)=O)c1cc2cc(Cl)c(C(F)(F)F)cc2n1S(C)(=O)=O (stereo not shown) ?
Result: 0
